tested on: Staphylococcus aureus 757 (MRSA); test: MIC by broth microdilution, SA 757; type: cell-based; conditions: Staphylococcus aureus, MRSA, read-out: MIC SA 757
I'd appreciate it if you could supply MIC values for the items below.

COMPOUND	MEASUREMENT_TYPE	READOUT_VALUE
CCCCCOc1ccc(S(=O)(=O)NCCCCNC(=O)Oc2cc(O)c3c(c2)[C@@H](C(=O)NC2C4CC5CC(C4)CC2C5)NC(=O)[C@H]2NC(=O)[C@H](NC(=O)[C@@H]4NC(=O)[C@H](CC(N)=O)NC(=O)[C@H](NC(=O)[C@@H](CC(C)C)NC)[C@H](O)c5ccc(c(Cl)c5)Oc5cc4cc(c5O[C@@H]4O[C@H](CO)[C@@H](O)[C@H](O)[C@H]4O[C@H]4C[C@](C)(N)[C@H](O)[C@H](C)O4)Oc4ccc(cc4Cl)[C@H]2O)c2ccc(O)c-3c2)cc1 (some centres unmarked)	MIC	0.01 to 0.5 µg/mL

For every record below, what is its MIC?
1. CCCCCCc1ccc(S(=O)(=O)NCCCCCNC(=O)Oc2cc(O)c3c(c2)[C@@H](C(=O)O)NC(=O)[C@H]2NC(=O)[C@H](NC(=O)[C@@H]4NC(=O)[C@H](CC(N)=O)NC(=O)[C@H](NC(=O)[C@@H](CC(C)C)NC)[C@H](O)c5ccc(c(Cl)c5)Oc5cc4cc(c5O[C@@H]4O[C@H](CO)[C@@H](O)[C@H](O)[C@H]4O[C@H]4C[C@](C)(N)[C@H](O)[C@H](C)O4)Oc4ccc(cc4Cl)[C@H]2O)c2ccc(O)c-3c2)cc1 (atropisomer, axis not shown)
2. CNCCCCCNC(=O)Oc1cc(O)c2c(c1)[C@@H](C(=O)NC1C3CC4CC(C3)CC1C4)NC(=O)[C@H]1NC(=O)[C@H](NC(=O)[C@@H]3NC(=O)[C@H](CC(N)=O)NC(=O)[C@H](NC(=O)[C@@H](CC(C)C)NC)[C@H](O)c4ccc(c(Cl)c4)Oc4cc3cc(c4O[C@@H]3O[C@H](CO)[C@@H](O)[C@H](O)[C@H]3O[C@H]3C[C@](C)(N)[C@H](O)[C@H](C)O3)Oc3ccc(cc3Cl)[C@H]1O)c1ccc(O)c-2c1 (some centres unmarked)
3. CCCCCOc1ccc(S(=O)(=O)NCCCCCCNC(=O)Oc2cc(O)c3c(c2)[C@@H](C(=O)NC2C4CC5CC(C4)CC2C5)NC(=O)[C@H]2NC(=O)[C@H](NC(=O)[C@@H]4NC(=O)[C@H](CC(N)=O)NC(=O)[C@H](NC(=O)[C@@H](CC(C)C)NC)[C@H](O)c5ccc(c(Cl)c5)Oc5cc4cc(c5O[C@@H]4O[C@H](CO)[C@@H](O)[C@H](O)[C@H]4O[C@H]4C[C@](C)(N)[C@H](O)[C@H](C)O4)Oc4ccc(cc4Cl)[C@H]2O)c2ccc(O)c-3c2)cc1 (some centres unmarked)
4. CNCCCOc1ccc(NC(=O)Oc2cc(O)c3c(c2)[C@@H](C(=O)NC2C4CC5CC(C4)CC2C5)NC(=O)[C@H]2NC(=O)[C@H](NC(=O)[C@@H]4NC(=O)[C@H](CC(N)=O)NC(=O)[C@H](NC(=O)[C@@H](CC(C)C)NC)[C@H](O)c5ccc(c(Cl)c5)Oc5cc4cc(c5O[C@@H]4O[C@H](CO)[C@@H](O)[C@H](O)[C@H]4O[C@H]4C[C@](C)(N)[C@H](O)[C@H](C)O4)Oc4ccc(cc4Cl)[C@H]2O)c2ccc(O)c-3c2)cc1 (some centres unmarked)

1. 0.01 to 0.5 µg/mL
2. 0.01 to 0.5 µg/mL
3. 0.5 to 1 µg/mL
4. 4 to 8 µg/mL

----------
system: Enterococcus faecalis 848 (VRE, Van A); assay: MIC by broth microdilution, EFc 848; assay type: cell-based; settings: Enterococcus faecalis, VRE, read-out: MIC E FC 848, Enterococcus faecalis 848 (VRE, Van A); class symbols
MEASUREMENT_TYPE: MIC

Value lookup for MIC; key = CCCCCCCC(C)NC(=O)Oc1cc(O)c2c(c1)[C@@H](C(=O)NC1C3CC4CC(C3)CC1C4)NC(=O)[C@H]1NC(=O)[C@H](NC(=O)[C@@H]3NC(=O)[C@H](CC(N)=O)NC(=O)[C@H](NC(=O)[C@@H](CC(C)C)NC)[C@H](O)c4ccc(c(Cl)c4)Oc4cc3cc(c4O[C@@H]3O[C@H](CO)[C@@H](O)[C@H](O)[C@H]3O[C@H]3C[C@](C)(N)[C@H](O)[C@H](C)O3)Oc3ccc(cc3Cl)[C@H]1O)c1ccc(O)c-2c1 (stereo partly shown)
> 16 µg/mL

----------
tested on: Enterococcus faecium 800; experiment: MIC by broth microdilution, EFcm 800; format: cell-based; conditions: Enterococcus faecium, 800, read-out: MIC E FCM 800
I'd appreciate it if you could supply MIC values for the items below.

For every record below, what is its MIC?
1. CCCCCCCC(C)NC(=O)Oc1cc(O)c2c(c1)[C@@H](C(=O)NC1C3CC4CC(C3)CC1C4)NC(=O)[C@H]1NC(=O)[C@H](NC(=O)[C@@H]3NC(=O)[C@H](CC(N)=O)NC(=O)[C@H](NC(=O)[C@@H](CC(C)C)NC)[C@H](O)c4ccc(c(Cl)c4)Oc4cc3cc(c4O[C@@H]3O[C@H](CO)[C@@H](O)[C@H](O)[C@H]3O[C@H]3C[C@](C)(N)[C@H](O)[C@H](C)O3)Oc3ccc(cc3Cl)[C@H]1O)c1ccc(O)c-2c1 (some centres unmarked) [Compound 312]
2. CCCCCOCCNC(=O)Oc1cc(O)c2c(c1)[C@@H](C(=O)O)NC(=O)[C@H]1NC(=O)[C@H](NC(=O)[C@@H]3NC(=O)[C@H](CC(N)=O)NC(=O)[C@H](NC(=O)[C@@H](CC(C)C)NC)[C@H](O)c4ccc(c(Cl)c4)Oc4cc3cc(c4O[C@@H]3O[C@H](CO)[C@@H](O)[C@H](O)[C@H]3O[C@H]3C[C@](C)(N)[C@H](O)[C@H](C)O3)Oc3ccc(cc3Cl)[C@H]1O)c1ccc(O)c-2c1 (atropisomer, axis not shown) [Compound 348]
3. CCOCCOCCNC(=O)Oc1cc(O)c2c(c1)[C@@H](C(=O)O)NC(=O)[C@H]1NC(=O)[C@H](NC(=O)[C@@H]3NC(=O)[C@H](CC(N)=O)NC(=O)[C@H](NC(=O)[C@@H](CC(C)C)NC)[C@H](O)c4ccc(c(Cl)c4)Oc4cc3cc(c4O[C@@H]3O[C@H](CO)[C@@H](O)[C@H](O)[C@H]3O[C@H]3C[C@](C)(N)[C@H](O)[C@H](C)O3)Oc3ccc(cc3Cl)[C@H]1O)c1ccc(O)c-2c1 (atropisomer, axis not shown) [Compound 353]
4. CCNCCOc1ccc(CCNC(=O)Oc2cc(O)c3c(c2)[C@@H](C(=O)NC2C4CC5CC(C4)CC2C5)NC(=O)[C@H]2NC(=O)[C@H](NC(=O)[C@@H]4NC(=O)[C@H](CC(N)=O)NC(=O)[C@H](NC(=O)[C@@H](CC(C)C)NC)[C@H](O)c5ccc(c(Cl)c5)Oc5cc4cc(c5O[C@@H]4O[C@H](CO)[C@@H](O)[C@H](O)[C@H]4O[C@H]4C[C@](C)(N)[C@H](O)[C@H](C)O4)Oc4ccc(cc4Cl)[C@H]2O)c2ccc(O)c-3c2)cc1 (some centres unmarked) [Compound 337]
5. CCCCOc1ccc(CCNC(=O)Oc2cc(O)c3c(c2)[C@@H](C(=O)O)NC(=O)[C@H]2NC(=O)[C@H](NC(=O)[C@@H]4NC(=O)[C@H](CC(N)=O)NC(=O)[C@H](NC(=O)[C@@H](CC(C)C)NC)[C@H](O)c5ccc(c(Cl)c5)Oc5cc4cc(c5O[C@@H]4O[C@H](CO)[C@@H](O)[C@H](O)[C@H]4O[C@H]4C[C@](C)(N)[C@H](O)[C@H](C)O4)Oc4ccc(cc4Cl)[C@H]2O)c2ccc(O)c-3c2)cc1 (atropisomer, axis not shown) [Compound 351]

["0.01 to 0.5 µg/mL", "1 to 2 µg/mL", "2 to 4 µg/mL", "0.01 to 0.5 µg/mL", "0.01 to 0.5 µg/mL"]

----------
tested on: Staphylococcus epidermidis 831 (MRSE); assay: MIC by broth microdilution, SE 831; type: cell-based; details: Staphylococcus epidermidis, MRSE, read-out: MIC SE 831
I'd appreciate it if you could supply MIC values for the items below.

Illustrative cases are given below, each with its answer.
MOLECULE	MIC
CCCCCOc1ccc(S(=O)(=O)NCCCCNC(=O)Oc2cc(O)c3c(c2)[C@@H](C(=O)NC2C4CC5CC(C4)CC2C5)NC(=O)[C@H]2NC(=O)[C@H](NC(=O)[C@@H]4NC(=O)[C@H](CC(N)=O)NC(=O)[C@H](NC(=O)[C@@H](CC(C)C)NC)[C@H](O)c5ccc(c(Cl)c5)Oc5cc4cc(c5O[C@@H]4O[C@H](CO)[C@@H](O)[C@H](O)[C@H]4O[C@H]4C[C@](C)(N)[C@H](O)[C@H](C)O4)Oc4ccc(cc4Cl)[C@H]2O)c2ccc(O)c-3c2)cc1 (some centres unmarked)	0.01 to 0.5 µg/mL
CCCCOc1ccc(CCNC(=O)Oc2cc(O)c3c(c2)[C@@H](C(=O)O)NC(=O)[C@H]2NC(=O)[C@H](NC(=O)[C@@H]4NC(=O)[C@H](CC(N)=O)NC(=O)[C@H](NC(=O)[C@@H](CC(C)C)NC)[C@H](O)c5ccc(c(Cl)c5)Oc5cc4cc(c5O[C@@H]4O[C@H](CO)[C@@H](O)[C@H](O)[C@H]4O[C@H]4C[C@](C)(N)[C@H](O)[C@H](C)O4)Oc4ccc(cc4Cl)[C@H]2O)c2ccc(O)c-3c2)cc1 (atropisomer, axis not shown)	0.5 to 1 µg/mL
CCCCCCc1ccc(NC(=O)Oc2cc(O)c3c(c2)[C@@H](C(=O)NC2C4CC5CC(C4)CC2C5)NC(=O)[C@H]2NC(=O)[C@H](NC(=O)[C@@H]4NC(=O)[C@H](CC(N)=O)NC(=O)[C@H](NC(=O)[C@@H](CC(C)C)NC)[C@H](O)c5ccc(c(Cl)c5)Oc5cc4cc(c5O[C@@H]4O[C@H](CO)[C@@H](O)[C@H](O)[C@H]4O[C@H]4C[C@](C)(N)[C@H](O)[C@H](C)O4)Oc4ccc(cc4Cl)[C@H]2O)c2ccc(O)c-3c2)cc1 (some centres unmarked)	0.5 to 1 µg/mL
CCCCCOc1ccc(S(=O)(=O)NCCCCCCNC(=O)Oc2cc(O)c3c(c2)[C@@H](C(=O)NC2C4CC5CC(C4)CC2C5)NC(=O)[C@H]2NC(=O)[C@H](NC(=O)[C@@H]4NC(=O)[C@H](CC(N)=O)NC(=O)[C@H](NC(=O)[C@@H](CC(C)C)NC)[C@H](O)c5ccc(c(Cl)c5)Oc5cc4cc(c5O[C@@H]4O[C@H](CO)[C@@H](O)[C@H](O)[C@H]4O[C@H]4C[C@](C)(N)[C@H](O)[C@H](C)O4)Oc4ccc(cc4Cl)[C@H]2O)c2ccc(O)c-3c2)cc1 (some centres unmarked)	1 to 2 µg/mL

With those in mind, consider the next molecule.
Value lookup for MIC; key = CCCCCCc1ccc(S(=O)(=O)NCCCCCNC(=O)Oc2cc(O)c3c(c2)[C@@H](C(=O)O)NC(=O)[C@H]2NC(=O)[C@H](NC(=O)[C@@H]4NC(=O)[C@H](CC(N)=O)NC(=O)[C@H](NC(=O)[C@@H](CC(C)C)NC)[C@H](O)c5ccc(c(Cl)c5)Oc5cc4cc(c5O[C@@H]4O[C@H](CO)[C@@H](O)[C@H](O)[C@H]4O[C@H]4C[C@](C)(N)[C@H](O)[C@H](C)O4)Oc4ccc(cc4Cl)[C@H]2O)c2ccc(O)c-3c2)cc1 (atropisomer, axis not shown)
0.01 to 0.5 µg/mL
